Below are molecules with their IC50 as measured on EGFR (UniProt P00533).
Sequence (P00533 whole entry, looked up): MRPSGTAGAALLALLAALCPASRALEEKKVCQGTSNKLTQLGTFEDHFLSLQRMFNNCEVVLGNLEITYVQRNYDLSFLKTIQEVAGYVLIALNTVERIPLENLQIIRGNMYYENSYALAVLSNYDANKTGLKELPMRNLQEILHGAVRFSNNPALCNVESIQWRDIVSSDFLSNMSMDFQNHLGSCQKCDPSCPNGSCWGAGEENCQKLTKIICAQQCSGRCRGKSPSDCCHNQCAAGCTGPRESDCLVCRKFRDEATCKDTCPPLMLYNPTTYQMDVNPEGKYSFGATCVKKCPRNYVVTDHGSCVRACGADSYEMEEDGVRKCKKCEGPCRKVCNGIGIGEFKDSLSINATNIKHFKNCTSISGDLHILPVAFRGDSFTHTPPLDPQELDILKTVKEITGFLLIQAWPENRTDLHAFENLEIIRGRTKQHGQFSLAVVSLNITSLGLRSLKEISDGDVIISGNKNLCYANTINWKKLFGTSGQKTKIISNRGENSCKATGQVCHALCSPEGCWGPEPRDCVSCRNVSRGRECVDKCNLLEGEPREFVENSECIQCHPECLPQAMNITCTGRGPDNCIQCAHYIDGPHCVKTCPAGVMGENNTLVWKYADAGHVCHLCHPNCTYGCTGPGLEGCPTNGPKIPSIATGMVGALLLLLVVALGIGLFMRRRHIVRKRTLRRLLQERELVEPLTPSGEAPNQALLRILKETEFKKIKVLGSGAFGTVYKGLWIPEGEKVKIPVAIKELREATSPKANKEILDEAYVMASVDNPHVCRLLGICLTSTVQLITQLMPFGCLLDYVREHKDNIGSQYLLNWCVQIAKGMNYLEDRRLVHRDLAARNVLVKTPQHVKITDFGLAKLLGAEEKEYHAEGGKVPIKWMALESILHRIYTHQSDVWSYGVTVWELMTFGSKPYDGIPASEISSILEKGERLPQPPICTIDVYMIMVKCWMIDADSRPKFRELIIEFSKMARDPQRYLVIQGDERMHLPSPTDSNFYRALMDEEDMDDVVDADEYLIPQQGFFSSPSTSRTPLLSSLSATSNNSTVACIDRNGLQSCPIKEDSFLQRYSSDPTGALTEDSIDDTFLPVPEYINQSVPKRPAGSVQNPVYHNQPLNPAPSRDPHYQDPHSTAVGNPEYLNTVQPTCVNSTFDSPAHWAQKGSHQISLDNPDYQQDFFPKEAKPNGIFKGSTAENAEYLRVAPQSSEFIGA

COc1cc(Nc2ncnc(Nc3nc4ccc(F)cc4s3)n2)cc(OC)c1OC
> 4.5 µg/mL
COc1ccc2c(c1)c(CCNC(C)=O)cn2-c1ncnc(Nc2cc(OC)c(OC)c(OC)c2)n1
> 4.5 µg/mL
COc1cc(Nc2ncnc(N3CCC(O)CC3)n2)cc(OC)c1OC
> 4.5 µg/mL
OCCCNc1ncnc(-c2ccccc2)n1
> 4.5 µg/mL
COc1cc(Nc2ncnc(-n3c(Nc4ccccc4C(N)=O)nc4ccccc43)n2)cc(OC)c1OC
> 4.5 µg/mL

Entry Nc1ncnc(-n2c(N)nc3ccccc32)n1 , IC50 reported as > 4.5 µg/mL

Briefly, IC50 measured for COc1ccc(Nc2ncnc(-c3cccs3)n2)cc1OC : > 4.5 µg/mL

Notebook: COCCNc1ncnc(Nc2cc(-c3ccc(C(=O)OC)cc3)n[nH]2)n1 , IC50 read as > 4.5 µg/mL

Record COc1cc(Nc2ncnc(-n3c(N)nc4cc([N+](=O)[O-])ccc43)n2)cc(OC)c1OC.COc1cc(Nc2ncnc(-n3c(N)nc4ccc([N+](=O)[O-])cc43)n2)cc(OC)c1OC . Reported IC50: > 4.5 µg/mL

Value of IC50 reported for the molecule COc1ccc(CCNc2ncnc(Nc3cc(-c4ccco4)[nH]n3)n2)cc1OC is > 4.5 µg/mL

// recorded IC50 for COc1ccc(CNc2nc3ccccc3n2-c2ncnc(Nc3cccc(C(=O)O)c3)n2)cc1 : > 4.5 µg/mL

# IC50 of O=c1[nH]c2ccccc2n1-c1ncnc(Nc2cc(Cl)cc(Cl)c2)n1 = > 4.5 µg/mL

// COc1ccc(Nc2ncnc(Nc3cccc(-c4ccnc(C)n4)c3)n2)cc1OC : IC50 value = > 4.5 µg/mL
